Tested on: ATP;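 further: ATP exposure 15 min at 22 °C before imaging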
Experiment: switch fluorescence ratio, 500 uM ATP over buffer (Cy3 cluster intensity, sum of 5 cycles each) (fold (ratio)); higher = stronger signal-on switching upon ATP binding; sequences stand for … in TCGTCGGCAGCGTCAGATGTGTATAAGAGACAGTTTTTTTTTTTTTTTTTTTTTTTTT…TC
Details: aptamer strand: ATP DNA aptamer (quencher-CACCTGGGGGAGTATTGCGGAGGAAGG + anchor), 100 nM annealed; ATP concentration: 500 uM
QUANTITY MEASURED: switch fluorescence ratio
Reply: number alone, nothing else.

Guide cases for switch fluorescence ratio, answers given:
> print(dat)
   seq.string  result.number
1  GGGTGAGATC           1.02
2  AAGGGCTCTG           1.01
3  TGGGGAGATA           1.01

State measured switch fluorescence ratio of the sequence "GAGGGGTTGG" with ATP. 0.964

System ATP. Read-out switch fluorescence ratio. Item "GAGTCGGTGT" . Report value. 1.03

Specify switch fluorescence ratio for "CGCGGTTGC" , system ATP. 1.24
